Where these numbers come from: paper PMC8442604

biological target: SARS-CoV-2 RBD protein (321–591) (SARS-CoV-2, Wuhan-Hu-1 (MN908947), UniProt P0DTC2); assay: ELISA; details: one partner purified
Recorded metric: binding result

Binder: C105 (antibody, V domains shown) VH: QVQLVESGGGLIQPGGSLRLSCAASGFTVSSNYMSWVRQAPGKGLEWVSVIYSGGSTYYADSVKGRFTISRDNSKNTLYLQMNSLRAEDTAVYYCARGEGWELPYDYWGQGTLVTVSS VL: QSALTQPPSASGSPGQSVTISCTGTSSDVGGYKYVSWYQQHPGKAPKLMIYEVSKRPSGVPDRFSGSKSGNTASLTVSGLQAEDEADYYCSSYEGSNNFVVFGGGTKLTVL
binding result: binds
//
Binder: B38 (antibody, V domains shown) VH: EVQLVESGGGLVQPGGSLRLSCAASGFIVSSNYMSWVRQAPGKGLEWVSVIYSGGSTYYADSVKGRFTISRHNSKNTLYLQMNSLRAEDTAVYYCAREAYGMDVWGQGTTVTVSS VL: DIVMTQSPSFLSASVGDRVTITCRASQGISSYLAWYQQKPGKAPKLLIYAASTLQSGVPSRFSGSGSGTEFTLTISSLQPEDFATYYCQQLNSYPPYTFGQGTKLEIK
binding result: binds
//
Binder: 4A8 (antibody, V domains shown) VH: EVQLVESGAEVKKPGASVKVSCKVSGYTLTELSMHWVRQAPGKGLEWMGGFDPEDGETMYAQKFQGRVTMTEDTSTDTAYMELSSLRSEDTAVYYCATSTAVAGTPDLFDYYYGMDVWGQGTTVTVSS VL: EIVMTQSPLSSPVTLGQPASISCRSSQSLVHSDGNTYLSWLQQRPGQPPRLLIYKISNRFSGVPDRFSGSGAGTDFTLKISRVEAEDVGVYYCTQATQFPYTFGQGTKVDIK
binding result: no binding
//
Binder: REGN10987 (antibody, V domains shown) VH: QVQLVESGGGVVQPGRSLRLSCAASGFTFSNYAMYWVRQAPGKGLEWVAVISYDGSNKYYADSVKGRFTISRDNSKNTLYLQMNSLRTEDTAVYYCASGSDYGDYLLVYWGQGTLVTVSS VL: QSALTQPASVSGSPGQSITISCTGTSSDVGGYNYVSWYQQHPGKAPKLMIYDVSKRPSGVSNRFSGSKSGNTASLTISGLQSEDEADYYCNSLTSISTWVFGGGTKLTVL
binding result: binds
//
Binder: LCA60 (antibody, V domains shown, also called MERS nAb LCA60) VH: EVQLLESGGGLVKPGGSLRLSCEASGLTFSNVWMSWVRQAPGKGLEWVGRIKRKSEGATTDYGAPVKGRFTLSRDDSKNTVYLQMNSLKIDDTAVYYCSTLTRGGDVWSSSYYFDYWGQGALVTVSS VL: QSALTQPASVSGSPGQSITISCTGTSSDVGTYDLVSWYQQHPGKSPKLMIYADIKRPSGVSHRFSGSKSGNTASLTISGLQSADEADYYCCLYAGSSTSVIFGGGTKVT
binding result: no binding

## Input I have this binder here, 2-4 (antibody, V domains shown) VH: QVQLVQSGAEVKKPGASVKVSCKASGYTFTGYYMHWVRQAPGQGLEWMGWINPNSGGTNYTQMFQGRVTMTRDTSISTAYMEVSRLRSDDTAVYYCARDRSWAVVYYYMDVWGKGTTVTVSS VL: QSALTQPPSASGSPGQSVTISCTGTSSDVGGYNYVSWYQQHPGKAPKLMIYEVSKRPSGVPDRFSGSKSGNTASLTVSGLQAEDEADYYCSSYAGSNNLVFGGGTKLTVL , and I need its recorded binding result.
## Output binds

## Input Entry REGN10933 (antibody, V domains shown) VH: QVQLVESGGGLVKPGGSLRLSCAASGFTFSDYYMSWIRQAPGKGLEWVSYITYSGSTIYYADSVKGRFTISRDNAKSSLYLQMNSLRAEDTAVYYCARDRGTTMVPFDYWGQGTLVTVSS VL: DIQMTQSPSSLSASVGDRVTITCQASQDITNYLNWYQQKPGKAPKLLIYAASNLETGVPSRFSGSGSGTDFTFTISGLQPEDIATYYCQQYDNLPLTFGGGTKVEIK : reported binding result = ?
## Output binds
